Would you kindly list % CAF 10 uM @ 60 min for each of these compounds?
# EXPERIMENTAL_SYSTEM: Cys12 of the KRAS 4B G12C protein (Homo sapiens, UniProt P01116, G12C)
# Construct: This protein contained 188 amino acids in total, including an N-terminal 6-Histidine tag; made in house; host or cells: E. coli BL21
# EXPERIMENT_SUMMARY: In vitro covalent adduct formation (CAF) assay, LC-MS intact mass
# Format: binding
# TEST_SETTINGS: 10 uM compound, 60 min incubation
Give bare numbers, in %.

COMPOUND	RECORDED_VALUE
C=CC(=O)N1C[C@H](C)N(c2nc(=O)n3c4c(c(-c5ccc(F)cc5F)c(C(F)(F)F)cc24)SCC2(COC2)C3)C[C@H]1C (atropisomer, axis not shown) [Example 1109]	93
C=CC(=O)N1[C@H](C)CN(c2nc(=O)n3c4c(c(-c5ccc(F)cc5)c(C(F)(F)F)cc24)SC[C@@H]3COC)C[C@@H]1C	98
C=CC(=O)N1[C@H](C)CN(c2nc(=O)n3c4c(c(-c5cc(Cl)c(F)cc5F)c(C(F)(F)F)cc24)SC[C@@H]3COC)C[C@@H]1C (single isomer, unassigned) [Example 1140]	93.9
C=CC(=O)N1CCN(c2nc(=O)n3c4c(c(-c5ccc(F)cc5F)c(C(F)(F)F)cc24)SCC2(COC2)C3)CC1 [Example 1123]	95.2

Now look at this entry.
Return reported % CAF 10 uM @ 60 min; argument: C=CC(=O)N1[C@H](C)CN(c2nc(=O)n3c4c(c(-c5cc(Cl)c(F)cc5F)c(C(F)(F)F)cc24)SC[C@@H](N2CCCC2)C3)C[C@@H]1C (atropisomer, axis not shown) [Example 1137]
83.4

====

# EXPERIMENTAL_SYSTEM: K-Ras G12C (Homo sapiens, UniProt P01116, G12C)
# Construct: This protein contained 188 amino acids in total, including an N-terminal 6-Histidine tag; made in house; host or cells: E. coli BL21
# EXPERIMENT_SUMMARY: CAF assay (% CAF; method in Example 7, not in this part)
# Format: binding
# TEST_SETTINGS: 10 uM compound, 1 h incubation
REPORTED_METRIC: % CAF @ 10 uM, 1h (%)
Answers are plain numbers, in %.

COMPOUND	DISPLAY_UNIT	RECORDED_VALUE
C=CC(=O)N1C[C@H](C)N(c2nc(=O)n3c4c(c(-c5cc(Cl)c(F)cc5F)c(Cl)cc24)SC[C@@H]3CN2CCN(C3CC3)CC2)C[C@H]1C	%	28
C=CC(=O)N1C[C@H](C)N(c2nc(=O)n3c4c(c(-c5ccc(F)cc5F)c(C(F)(F)F)cc24)SC[C@@H]3CN2CCN(CC(N)=O)CC2)C[C@H]1C	%	89.5
C=CC(=O)N1[C@H](C)CN(c2nc(=O)n3c4c(c(-c5cc(Cl)c(F)cc5F)c(C(F)(F)F)cc24)SC[C@@H]3COC)C[C@@H]1C (atropisomer, axis not shown) [Example 563]	%	93.9

Your task in this section: give % CAF @ 10 uM, 1h for each listed record.
1. C=CC(=O)N1[C@H](C)CN(c2nc(=O)n3c4c(c(-c5cc(Cl)c(F)cc5F)c(C(F)(F)F)cc24)SC[C@@H]3CN2CCC3(CC2)COC3)C[C@@H]1C (atropisomer, axis not shown) [Example 565]
2. C=CC(=O)N1C[C@H](C)N(c2nc(=O)n3c4c(c(-c5ccc(F)cc5)c(C(F)(F)F)cc24)SC[C@@H]3CN2CCN(CC(F)F)CC2)C[C@H]1C
3. C=CC(=O)N1C[C@H](C)N(c2nc(=O)n3c4c(c(-c5cc(Cl)c(F)cc5F)c(Cl)cc24)SC[C@@H]3COCCOC)C[C@H]1C
4. C=CC(=O)N1C[C@H](C)N(c2nc(=O)n3c4c(c(-c5cc(Cl)c(F)cc5F)c(Cl)cc24)SC[C@@H]3CC2CCN(C3CC3)CC2)C[C@H]1C
5. C=CC(=O)N1C[C@H](C)N(c2nc(=O)n3c4c(c(-c5ccc(F)cc5F)c(Cl)cc24)SC[C@@H]3CN2CCN(CC(F)F)CC2)C[C@H]1C

1. 48.3
2. 83.2
3. 65.1
4. 44.3
5. 91.6

====

Would you kindly list % CAF @ 10 uM, 1h for each of these compounds?
# EXPERIMENTAL_SYSTEM: K-Ras G12C (Homo sapiens, UniProt P01116, G12C)
# Construct: This protein contained 188 amino acids in total, including an N-terminal 6-Histidine tag; made in house; host or cells: E. coli BL21
# EXPERIMENT_SUMMARY: CAF assay (% CAF; method in Example 7, not in this part)
# Type: binding
# TEST_SETTINGS: 10 uM, 1 h; Table 3
Numbers only, in %.

Example compounds with recorded % CAF @ 10 uM, 1h:
>>> print(df.to_string())
                                   compound    reported_metric  display_unit  recorded_value
0  C=CC(=O)N1CCN(c2nc(=O)n3c4c(c(-c5ccc(F)cc5F)c(C(F)(F)F)cc24)SCC3)C2CS(=O)(=O)CC21 (stereo not shown)  % CAF @ 10 uM, 1h             %              94
1  C=CC(=O)N1CCN(c2nc(=O)n3c4c(c(-c5cccc6cnccc56)c(Cl)cc24)SCC3)[C@@H](C)C1  % CAF @ 10 uM, 1h             %            76.1
2  C=CC(=O)N1CCN(c2nc(=O)n3c4c(c(-c5ccccc5F)c(Cl)cc24)SCC3)[C@@H](C)C1 (atropisomer, axis not shown) [Example 123]  % CAF @ 10 uM, 1h             %            91.3
3  C=CC(=O)N1CCN(c2nc(=O)n3c4c(c(-c5ccccc5C(F)(F)F)c(Cl)cc24)SCC3)[C@@H](C)C1  % CAF @ 10 uM, 1h             %            69.8
4  C=CC(=O)N1CCN(c2nc(=O)n3c4c(c(-c5cc(F)cc(F)c5)c(Cl)cc24)SCC3)[C@@H](C)C1  % CAF @ 10 uM, 1h             %              70
5  C=CC(=O)N1CCN(c2nc(=O)n3c4c(c(-c5ccc(Cl)c(F)c5)c(Cl)cc24)SCC3)[C@@H](C)C1  % CAF @ 10 uM, 1h             %            94.5

Your task in this section: give % CAF @ 10 uM, 1h for each listed record.
1. C=CC(=O)N1CCN(c2nc(=O)n3c4c(c(-c5ccc(F)cc5F)c(Cl)cc24)SCC3)C[C@@H]1CC#N
2. C=CC(=O)N1CCN(c2nc(=O)n3c4c(c(-c5ccc(F)cc5)c(Cl)cc24)SC[C@H]3CC2CCN(CC(F)F)CC2)[C@@H](C)C1

[90.2, 87]

Your task in this section: give % CAF @ 10 uM, 1h for each listed record.
1. C=CC(=O)N1CCN(c2nc(=O)n3c4c(c(-c5ccc(F)cc5F)c(Cl)cc24)S(=O)(=O)CC3)[C@@H](C)C1 [Example 149]
2. C=CC(=O)N1CCN(c2nc(=O)n3c4c(c(-n5ccccc5=O)c(Cl)cc24)SCC3)[C@@H](C)C1
3. C=CC(=O)N1CCN(c2nc(=O)n3c4c(c(-c5c(F)cc(F)cc5F)c(Cl)cc24)SC[C@@H]3CCCN2C[C@@H]3C[C@H]2CO3)[C@@H](C)C1
4. C=CC(=O)N1[C@@H](C)CN(c2nc(=O)n3c4c(c(-c5ccc(F)cc5F)c(Cl)cc24)SCC3)C[C@@H]1C
5. C[C@H]1CN(C(=O)/C=C/C(F)(F)F)CCN1c1nc(=O)n2c3c(c(-c4ccc(F)cc4F)c(Cl)cc13)SCC2

52.8
89.4
96.9
0
86.2

====

# EXPERIMENTAL_SYSTEM: Cys12 of the KRAS 4B G12C protein (Homo sapiens, UniProt P01116, G12C)
# Construct: This protein contained 188 amino acids in total, including an N-terminal 6-Histidine tag; made in house; host or cells: E. coli BL21
# EXPERIMENT_SUMMARY: In vitro covalent adduct formation (CAF) assay, LC-MS intact mass
# Assay type: binding
# TEST_SETTINGS: 10 uM compound, 60 min incubation
Could you mark each record yes (1) if its % CAF 10 uM @ 60 min falls strictly under 80%, and no (0) if it equals or exceeds it?

COMPOUND	ANSWER_LABEL
C=CC(=O)N1[C@H](C)CN(c2nc(=O)n3c4c(c(-c5ccc(F)c6cnn(C)c56)c(C(F)(F)F)cc24)SC[C@@H]3COC)C[C@@H]1C (atropisomer, axis not shown)	yes (1)
C=CC(=O)N1C[C@H](C)N(c2nc(=O)n3c4c(c(-c5ccc(F)cc5F)c(C(F)(F)F)cc24)SCC2(COC2)C3)C[C@H]1C (atropisomer, axis not shown) [Example 1110]	no (0)
C=CC(=O)N1CCN(c2nc(=O)n3c4c(c(-c5ccc(F)cc5)c(C(F)(F)F)cc24)SC[C@@H]3COC)CC1	no (0)
C=CC(=O)N1CCN(c2nc(=O)n3c4c(c(-c5cc(Cl)c(F)cc5F)c(C(F)(F)F)cc24)SC[C@@H]3COC)CC1 (atropisomer, axis not shown) [Example 1108]	no (0)
C=CC(=O)N1C[C@H](C)N(c2nc(=O)n3c4c(c(-c5cccc6cnn(C)c56)c(C(F)(F)F)cc24)SC[C@@H]3COC)C[C@H]1C (atropisomer, axis not shown) [Example 1101]	yes (1)
C=CC(=O)N1[C@H](C)CN(c2nc(=O)n3c4c(c(-c5cc(Cl)c(F)cc5F)c(C(F)(F)F)cc24)SC[C@@H]3COC)C[C@@H]1C (single isomer, unassigned) [Example 1139]	no (0)

# strict comparison: is reported % CAF 10 uM @ 60 min < 80%? input = C=CC(=O)N1[C@H](C)CN(c2nc(=O)n3c4c(c(-c5ccc(F)cc5)c(C(F)(F)F)cc24)SC[C@H](N2CCCC2)C3)C[C@@H]1C
no (0)
